study_system: T1, monocyte chemo-attractant protein-1 (MCP-1) (Homo sapiens (Human)., UniProt P13500)
T1 construct: MCP-1 (monocyte chemo-attractant protein-1), chemokine; synthetic gene optimised for E. coli in pET26b; Probably the mature human chemokine, as in PDB 2BDN; also called monocyte chemotactic protein-1; antigen; source: E. coli Rosetta2 (DE3), purified (Ni-NTA, SEC)
procedure_summary: SPR; temperature dependence of KD, van't Hoff approximation; MCP-1 immobilised, scFv injected
experimental_parameters: both partners purified
Measured dH by item

{"columns": ["binder", "dH, kcal/mol"],
 "data": [
  ["11K2 scFv mutein L-T56E (scFv, V domains shown, PDB 2BDN heavy chain; PDB 2BDN light chain) with the stated change) VH: EVQLQQSGAELVKAGASVKLSCPASGLNIKDTYMHWVKQRPEQGLEWIGRIDPANGNTKFDPKFQGKATITADTSSNTAYLQLSSLTSEDTAVYYCARGVFGFFDYWGQGTTLTVSS VL: DIQMTQSSSSFSVSLGDRVTITCKATEDIYNRLAWYQQKPGSAPRLLISGATSLEEGVPSRFSGSGSGKDYTLSITSLQTEDVATYYCQQFWSAPYTFGGGTKLEIK", -14.5],
  ["11K2 scFv mutein L-S53E (scFv, V domains shown, PDB 2BDN heavy chain; PDB 2BDN light chain) with the stated change) VH: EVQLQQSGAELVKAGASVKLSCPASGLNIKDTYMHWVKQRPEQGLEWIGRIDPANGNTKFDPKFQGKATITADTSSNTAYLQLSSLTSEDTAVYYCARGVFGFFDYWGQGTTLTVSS VL: DIQMTQSSSSFSVSLGDRVTITCKATEDIYNRLAWYQQKPGSAPRLLISGATELETGVPSRFSGSGSGKDYTLSITSLQTEDVATYYCQQFWSAPYTFGGGTKLEIK", -15.1],
  ["11K2 scFv mutein L-T56D (scFv, V domains shown, PDB 2BDN heavy chain; PDB 2BDN light chain) with the stated change) VH: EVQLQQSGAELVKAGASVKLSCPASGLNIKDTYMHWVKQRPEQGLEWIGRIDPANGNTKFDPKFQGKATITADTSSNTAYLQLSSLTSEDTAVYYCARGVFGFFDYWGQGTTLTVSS VL: DIQMTQSSSSFSVSLGDRVTITCKATEDIYNRLAWYQQKPGSAPRLLISGATSLEDGVPSRFSGSGSGKDYTLSITSLQTEDVATYYCQQFWSAPYTFGGGTKLEIK", -11.7],
  ["wild-type 11K2 scFv (scFv, V domains shown, VH of antibody 11K2; also the variable domain of the heavy chain of the 11K2 Fab in PDB 2BDN; linker of the scFv; VL of antibody 11K2; also the variable domain of the light chain of the 11K2 Fab in PDB 2BDN; also called WT; scFv 11K2) VH: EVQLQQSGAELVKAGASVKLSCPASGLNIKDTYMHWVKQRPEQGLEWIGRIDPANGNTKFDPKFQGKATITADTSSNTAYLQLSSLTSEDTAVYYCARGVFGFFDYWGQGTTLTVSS VL: DIQMTQSSSSFSVSLGDRVTITCKATEDIYNRLAWYQQKPGSAPRLLISGATSLETGVPSRFSGSGSGKDYTLSITSLQTEDVATYYCQQFWSAPYTFGGGTKLEIK", -7.3]
]}

Data credit: paper PMC3903617
